target-desc: NPR-B (Homo sapiens, UniProt P20594)
Construct: a functional assay using endogenously NPR-B expressing GTM-3 cells; endogenous in cells; host or cells: GTM-3 (human glaucoma trabecular meshwork cells)
Sequence (P20594 23-1047): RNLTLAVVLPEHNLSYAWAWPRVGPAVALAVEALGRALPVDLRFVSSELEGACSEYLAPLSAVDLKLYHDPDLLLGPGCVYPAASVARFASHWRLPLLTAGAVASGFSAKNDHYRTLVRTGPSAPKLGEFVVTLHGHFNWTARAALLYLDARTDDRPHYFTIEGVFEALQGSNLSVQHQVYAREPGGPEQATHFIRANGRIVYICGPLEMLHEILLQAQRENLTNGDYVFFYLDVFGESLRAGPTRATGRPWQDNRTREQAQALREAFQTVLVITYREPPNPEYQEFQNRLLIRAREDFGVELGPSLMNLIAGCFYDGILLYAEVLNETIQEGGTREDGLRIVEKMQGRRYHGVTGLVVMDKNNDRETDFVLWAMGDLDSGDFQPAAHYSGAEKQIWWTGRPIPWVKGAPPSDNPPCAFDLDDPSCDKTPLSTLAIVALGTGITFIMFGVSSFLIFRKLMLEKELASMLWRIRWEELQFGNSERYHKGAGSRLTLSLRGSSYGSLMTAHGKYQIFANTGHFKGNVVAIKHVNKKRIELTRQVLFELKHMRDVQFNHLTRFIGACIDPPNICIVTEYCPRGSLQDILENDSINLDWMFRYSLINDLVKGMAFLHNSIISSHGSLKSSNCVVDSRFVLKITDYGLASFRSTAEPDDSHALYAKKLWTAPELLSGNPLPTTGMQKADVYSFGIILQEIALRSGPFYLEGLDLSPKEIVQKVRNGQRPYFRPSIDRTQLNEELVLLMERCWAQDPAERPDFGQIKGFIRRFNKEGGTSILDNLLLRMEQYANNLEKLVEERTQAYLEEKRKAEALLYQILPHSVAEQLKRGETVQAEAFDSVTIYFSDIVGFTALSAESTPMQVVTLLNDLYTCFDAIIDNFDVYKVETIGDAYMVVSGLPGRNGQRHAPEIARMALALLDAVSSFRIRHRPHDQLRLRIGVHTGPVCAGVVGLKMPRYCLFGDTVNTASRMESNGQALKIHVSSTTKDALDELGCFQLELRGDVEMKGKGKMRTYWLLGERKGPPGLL
method-notes: NPR-B induced production of cyclic GMP in human glaucoma trabecular meshwork cells (GTM-3)
Type: cell-based
condition: group by EC50 and Emax (CNP = 100%); Table 4; read-out: Activity (group), NPR-B activation assayed with GTM-3 cells
Numbered stars: 1 amine (or outer) side, 2 acyl side, 3 side chain; on linkers, the order of the positions; unused ones are H or OH. Square brackets hold non-standard residues; d marks the D form. Peptide text beside a SMILES is read from it. * marks the point of attachment. X11 = O=C(C(CCN1CCCC1)N[*:1])[*:2]; X2 = O=C([C@H]1CCCN([*:1])C1)[*:2]; Hyp = O=C(O)[C@@H]1C[C@@H](O)CN1; NMeL = CN[C@@H](CC(C)C)C(=O)O; Octanoyl = CCCCCCCC(=O)*
reported-metric: EC50

Study these solved cases before continuing.
[
  {
    "compound": "CCCCCCCC(=O)N1CCC[C@H](C(=O)N[C@@H](Cc2ccccc2)C(=O)NC(CCN2CCCC2)C(=O)N[C@@H](CC(C)C)C(=O)N2C[C@H](O)C[C@H]2C(=O)N(C)[C@@H](CC(C)C)C(=O)N[C@@H](CC(=O)O)C(=O)N[C@@H](CCCNC(=N)N)C(=O)N[C@H](C(N)=O)[C@@H](C)CC)C1 (stereo partly drawn) [JAL-1877] (Octanoyl-[X2]F[X11]L[Hyp][NMeL]DRI-NH2)",
    "reported-metric": "EC50",
    "measured-result": "< 1 µM"
  },
  {
    "compound": "CCCCCCCC(=O)N1CCC[C@@H]1C(=O)N[C@@H](Cc1ccccc1)C(=O)N[C@H](CC(C)C)C(=O)N[C@@H](CC(C)C)C(=O)N1C[C@H](O)C[C@H]1C(=O)N[C@@H](CC(C)C)C(=O)N[C@@H](CC(=O)O)C(=O)N[C@@H](CCCNC(=N)N)C(=O)N[C@H](C(N)=O)[C@@H](C)CC [JAL-1053] (HELM PEPTIDE1{[CCCCCCCC(=O)[*:2]].[dP].F.[dL].L.[Hyp].L.D.R.I.[am]}$$$$V2.0)",
    "reported-metric": "EC50",
    "measured-result": "< 1 µM"
  }
]

Turning now to a further compound:
**Q:** Item CCCCCCCC(=O)N1CCCC[C@@H]1C(=O)N[C@@H](Cc1ccccc1)C(=O)N[C@H](CCCNC(=N)N)C(=O)N[C@@H](CC(C)C)C(=O)N1CCC[C@H]1C(=O)N(C)[C@@H](CC(C)C)C(=O)N[C@@H](CC(=O)O)C(=O)N[C@@H](CCCNC(=N)N)C(=O)N[C@H](C(N)=O)[C@@H](C)CC [JAL-1078] (HELM PEPTIDE1{[CCCCCCCC(=O)[*:2]].[O=C([C@H]1CCCCN1[*:1])[*:2]].F.[dR].L.P.[meL].D.R.I.[am]}$$$$V2.0) has what recorded EC50?
**A:** < 1 µM

###

Here, each record is paired with measured pEC50 data.
target-desc: NPR-B (Homo sapiens)
Construct: a functional assay using endogenously NPR-B expressing GTM-3 cells; endogenous in cells; host or cells: GTM-3 (human glaucoma trabecular meshwork cells)
method-notes: NPR-B induced production of cyclic GMP in human glaucoma trabecular meshwork cells (GTM-3)
Format: cell-based
condition: group by EC50 and Emax (CNP = 100%); Table 4; read-out: Activity (group), NPR-B activation assayed with GTM-3 cells
pEC50: −log10 of the molar value. Numbered stars: 1 amine (or outer) side, 2 acyl side, 3 side chain; on linkers, the order of the positions; unused ones are H or OH. Square brackets hold non-standard residues; d marks the D form. Peptide text beside a SMILES is read from it. * marks the point of attachment. X7 = N[C@@H]1CCN([*:1])[C@@H]1C(=O)[*:2]; X2 = O=C([C@H]1CCCN([*:1])C1)[*:2]; Hyp = O=C(O)[C@@H]1C[C@@H](O)CN1; NHcycloheptyl = C1CCCC(N*)CC1; NMeL = CN[C@@H](CC(C)C)C(=O)O; Octanoyl = CCCCCCCC(=O)*

Some molecules with known pEC50 results, for comparison:
[
  {
    "molecule": "CCCCCCCC(=O)N[C@H](C)C(=O)N[C@@H](Cc1ccccc1)C(=O)NC1(C(=O)N[C@@H](CC(C)C)C(=O)N2C[C@H](O)C[C@H]2C(=O)N(C)[C@@H](CC(C)C)C(=O)N[C@@H](CC(=O)O)C(=O)N[C@@H](CCCNC(=N)N)C(=O)N[C@H](C(N)=O)[C@@H](C)CC)CCNCC1 [JAL-1338] (HELM PEPTIDE1{[CCCCCCCC(=O)[*:2]].[dA].F.[O=C(C1(N[*:1])CCNCC1)[*:2]].L.[Hyp].[meL].D.R.I.[am]}$$$$V2.0)",
    "pEC50": "> 6.00"
  },
  {
    "molecule": "CCCCCCCC(=O)N1CCC[C@H](C(=O)N[C@@H](Cc2ccccc2)C(=O)N[C@H](CC(C)C)C(=O)N[C@@H](CC(C)C)C(=O)N2C[C@H](O)C[C@H]2C(=O)N(C)[C@@H](CC(C)C)C(=O)N[C@@H](CC(=O)O)C(=O)N2CC[C@@H](N)[C@H]2C(=O)NC2CCCCCC2)C1 [JAL-1679, Occ-Sni-Phe-leu-Leu-Hyp-Nml-Asp-Pca-Che] (Octanoyl-[X2]F[dL]L[Hyp][NMeL]D[X7]-NHcycloheptyl)",
    "pEC50": "> 6.00"
  }
]

Now for a further molecule.
**Q:** For CCCCCCCC(=O)N1CCC[C@H](C(=O)N[C@@H](Cc2ccccc2)C(=O)N[C@H](CC(C)C)C(=O)N[C@@H](CC(C)C)C(=O)N2C[C@H](O)C[C@H]2C(=O)N(C)[C@@H](CC(C)C)C(=O)N[C@H](C(=O)N[C@@H](CCCNC(=N)N)C(=O)NC2CCCCCC2)C(C)C)C1 [JAL-1730, Occ-Sni-Phe-leu-Leu-Hyp-Nml-Val-Arg-Che] (Octanoyl-[X2]F[dL]L[Hyp][NMeL]VR-NHcycloheptyl) , what is its reported pEC50?
**A:** > 6.00

###

target-desc: NPR-B (Homo sapiens, UniProt P20594)
Construct: a functional assay using endogenously NPR-B expressing GTM-3 cells; endogenous in cells; host or cells: GTM-3 (human glaucoma trabecular meshwork cells)
method-notes: NPR-B induced production of cyclic GMP in human glaucoma trabecular meshwork cells (GTM-3)
Type: cell-based
condition: group by EC50 and Emax (CNP = 100%); Table 4; read-out: Activity (group), NPR-B activation assayed with GTM-3 cells
pEC50: −log10 of the molar value. Numbered stars: 1 amine (or outer) side, 2 acyl side, 3 side chain; on linkers, the order of the positions; unused ones are H or OH. Square brackets hold non-standard residues; d marks the D form. Peptide text beside a SMILES is read from it. * marks the point of attachment. Pro(4R-NH2) = N[C@H]1CN[C@H](C(=O)O)C1; X2 = O=C([C@H]1CCCN([*:1])C1)[*:2]; dDap(Me2) = CN(C)C[C@@H](N)C(=O)O; NMeL = CN[C@@H](CC(C)C)C(=O)O; Octanoyl = CCCCCCCC(=O)*
reported-metric: pEC50

Study these solved cases before continuing.
[
  {
    "compound": "CCCCCCCC(=O)N[C@H](C)C(=O)N[C@@H](Cc1ccc(Cl)cc1)C(=O)N[C@H](CC(C)C)C(=O)N[C@@H](CC(C)C)C(=O)N1C[C@H](O)C[C@H]1C(=O)N(C)[C@@H](CC(C)C)C(=O)N[C@@H](CC(=O)O)C(=O)N[C@@H](CCCNC(=N)N)C(=O)N[C@H](C(N)=O)[C@@H](C)CC [JAL-1043] (HELM PEPTIDE1{[CCCCCCCC(=O)[*:2]].[dA].[O=C([C@H](Cc1ccc(Cl)cc1)N[*:1])[*:2]].[dL].L.[Hyp].[meL].D.R.I.[am]}$$$$V2.0)",
    "pEC50": "> 6.00"
  },
  {
    "compound": "CCCCCCCC(=O)N1CCC[C@H](C(=O)N[C@@H](Cc2ccccc2)C(=O)N[C@H](CCCNC(=N)N)C(=O)N[C@@H](CC(C)C)C(=O)N2C[C@H](N)C[C@H]2C(=O)N(C)[C@@H](CC(C)C)C(=O)N[C@@H](CC(=O)O)C(=O)N[C@@H](CCCNC(=N)N)C(=O)N[C@H](C(N)=O)[C@@H](C)CC)C1 [JAL-1317] (Octanoyl-[X2]F[dR]L[Pro(4R-NH2)][NMeL]DRI-NH2)",
    "pEC50": "> 6.00"
  }
]

Shift focus to the following entry.
**Q:** I am curious: what pEC50 value has been reported for CCCCCCCC(=O)N1CCC[C@H](C(=O)N[C@@H](Cc2ccccc2)C(=O)N[C@H](CN(C)C)C(=O)N[C@@H](CC(C)C)C(=O)N2C[C@H](N)C[C@H]2C(=O)N(C)[C@@H](CC(C)C)C(=O)N[C@@H](CC(=O)O)C(=O)N[C@@H](CCCNC(=N)N)C(=O)N[C@H](C(N)=O)[C@@H](C)CC)C1 [JAL-1325] (Octanoyl-[X2]F[dDap(Me2)]L[Pro(4R-NH2)][NMeL]DRI-NH2) ?
**A:** > 6.00
